- experimental-system: CYP2D6 (Homo sapiens)
- Sequence (P10635 whole entry): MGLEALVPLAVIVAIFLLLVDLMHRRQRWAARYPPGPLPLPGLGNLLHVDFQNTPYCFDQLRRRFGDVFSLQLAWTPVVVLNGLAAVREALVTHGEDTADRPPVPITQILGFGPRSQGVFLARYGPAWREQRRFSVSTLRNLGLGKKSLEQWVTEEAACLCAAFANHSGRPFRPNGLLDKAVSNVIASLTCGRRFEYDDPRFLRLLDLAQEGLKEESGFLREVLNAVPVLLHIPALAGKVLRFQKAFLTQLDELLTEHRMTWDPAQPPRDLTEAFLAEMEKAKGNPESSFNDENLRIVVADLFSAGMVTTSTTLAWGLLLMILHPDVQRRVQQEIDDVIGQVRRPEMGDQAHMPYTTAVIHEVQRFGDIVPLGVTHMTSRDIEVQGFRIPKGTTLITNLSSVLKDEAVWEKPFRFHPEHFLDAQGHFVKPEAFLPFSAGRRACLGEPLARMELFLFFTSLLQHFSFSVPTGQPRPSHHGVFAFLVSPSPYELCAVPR
- experiment-description: Inhibition of human recombinant CYP2D6 at 3 uM by fluorimetric assay
- Assay type: ADME
recorded-endpoint: inhibition at 3 µM

record-smiles: CS(=O)(=O)c1ccc(-c2ccccc2)c(C(=O)N2CC3(CC3)C[C@H]2CNc2ccc(C(F)(F)F)cn2)c1
experimental-system: CYP2D6 (Homo sapiens)
assay-value: < 41%
//
record-smiles: Cc1ccc(-c2nccs2)c(C(=O)N2CC3(CC3)C[C@H]2CNc2ccc(C(F)(F)F)cn2)n1
experimental-system: CYP2D6 (Homo sapiens)
assay-value: < 89%
//
record-smiles: O=C(c1nc(OC(F)(F)F)ccc1-c1ncccn1)N1CC2(CC2)C[C@H]1CNc1ccc(C(F)(F)F)cn1
experimental-system: CYP2D6 (Homo sapiens)
assay-value: < 58%
//
record-smiles: O=C(c1cc(Cl)ccc1-c1ncccn1)N1CC2(CC2)C[C@H]1CNc1ccc(C(F)(F)F)cn1
experimental-system: CYP2D6 (Homo sapiens)
assay-value: < 22%
//
record-smiles: Cc1ccc(OCc2ccccc2)c(C(=O)N2CC3(CC3)C[C@H]2CNc2ccc(C(F)(F)F)cn2)n1
experimental-system: CYP2D6 (Homo sapiens)
assay-value: < 71%
//
record-smiles: Cc1ccc(-c2ccccc2)c(C(=O)N2CC3(CC3)C[C@H]2CNc2ccc(C(F)(F)F)cn2)n1
experimental-system: CYP2D6 (Homo sapiens)
assay-value: < 20%
//
record-smiles: Cc1ccc(-c2ncccn2)c(C(=O)N2CC3(CC3)C[C@H]2CNc2ccc(C(F)(F)F)cn2)n1
experimental-system: CYP2D6 (Homo sapiens)
assay-value: < 28%
//
record-smiles: O=C(c1nc(C(F)(F)F)ccc1-c1ncccn1)N1CC2(CC2)C[C@H]1CNc1ccc(C(F)(F)F)cn1
experimental-system: CYP2D6 (Homo sapiens)
assay-value: < 39%
//
record-smiles: Cc1nc(C(=O)N2CC3(CC3)C[C@H]2CNc2ccc(C(F)(F)F)cn2)c(-c2ccccc2)s1
experimental-system: CYP2D6 (Homo sapiens)
assay-value: < 20%
//
record-smiles: Cc1cnn(-c2ccc(C)nc2C(=O)N2CC3(CC3)C[C@H]2CNc2ccc(C(F)(F)F)cn2)c1
experimental-system: CYP2D6 (Homo sapiens)
assay-value: < 85%
//
record-smiles: N#Cc1ccc(-c2ncccn2)c(C(=O)N2CC3(CC3)C[C@H]2CNc2ccc(C(F)(F)F)cn2)c1
experimental-system: CYP2D6 (Homo sapiens)
assay-value: < 32%
//
record-smiles: O=C(c1ncccc1-c1ncccn1)N1CC2(CC2)C[C@H]1CNc1ccc(C(F)(F)F)cn1
experimental-system: CYP2D6 (Homo sapiens)
assay-value: < 47%

----------
- experimental-system: Orexin/Hypocretin receptor type 1 (Homo sapiens)
- experiment-description: Antagonist activity at human recombinant OX1 receptor expressed in CHO cells assessed as OXA-stimulated intracellular calcium mobilization by FLIPR assay
- Type: functional, cell-based
Recorded pKb values for a group of compounds are listed next.
recorded-endpoint: pKb

record-smiles: Cc1ccc(-c2ncccn2)c(C(=O)N2CC3(CC3)C[C@H]2CNc2ccc(C(F)(F)F)cn2)n1
recorded-endpoint: pKb
assay-value: 8.4

record-smiles: Cc1ccc(-c2ncccn2)c(C(=O)N2CC3(CC3)C[C@H]2CNc2cc(C(F)(F)F)ccn2)n1
recorded-endpoint: pKb
assay-value: 6

record-smiles: Cc1ccc(-c2ncccn2)c(C(=O)N2CC3(CC3)C[C@H]2CNc2ccc(C(F)(F)F)cn2)c1
recorded-endpoint: pKb
assay-value: 8.7

record-smiles: O=C(c1nc(OC(F)(F)F)ccc1-c1ncccn1)N1CC2(CC2)C[C@H]1CNc1ccc(C(F)(F)F)cn1
recorded-endpoint: pKb
assay-value: 7

----------
- experimental-system: Cytochrome P450 3A4 (Homo sapiens)
- Sequence (P08684 whole entry): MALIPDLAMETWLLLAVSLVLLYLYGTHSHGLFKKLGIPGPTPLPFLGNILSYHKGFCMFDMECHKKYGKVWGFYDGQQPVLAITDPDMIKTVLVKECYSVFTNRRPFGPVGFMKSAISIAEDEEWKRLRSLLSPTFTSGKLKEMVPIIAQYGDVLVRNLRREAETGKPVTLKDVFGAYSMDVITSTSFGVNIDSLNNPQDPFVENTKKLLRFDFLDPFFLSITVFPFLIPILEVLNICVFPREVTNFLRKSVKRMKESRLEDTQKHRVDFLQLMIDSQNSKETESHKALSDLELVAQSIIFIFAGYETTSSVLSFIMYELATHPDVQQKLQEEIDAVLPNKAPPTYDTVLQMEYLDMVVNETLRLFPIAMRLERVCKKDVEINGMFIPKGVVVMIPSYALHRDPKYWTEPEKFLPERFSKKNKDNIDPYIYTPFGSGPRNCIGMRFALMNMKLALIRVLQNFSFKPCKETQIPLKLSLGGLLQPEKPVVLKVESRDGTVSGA
- experiment-description: Inhibition of human recombinant CYP3A4 using BFC as substrate by fluorimetric assay

record-smiles: Cc1ccc(-c2ccccc2)c(C(=O)N2CC3(CC3)C[C@H]2CNc2ccc(C(F)(F)F)cn2)n1
quantity-unit: µM
qual: =
IC50: 64
--
record-smiles: Cc1cc(C)nc(NC[C@@H]2CC3(CC3)CN2C(=O)c2nc(C)sc2-c2ccccc2)n1
quantity-unit: µM
qual: =
IC50: 7.9
--
record-smiles: Cc1ccc(-c2ncccn2)c(C(=O)N2CC3(CC3)C[C@H]2CNc2ccc(C(F)(F)F)cn2)n1
quantity-unit: µM
qual: >
IC50: 100
--
record-smiles: Cc1nc(C(=O)N2CC3(CC3)C[C@H]2CNc2ccc(C(F)(F)F)cn2)c(-c2ccccc2)s1
quantity-unit: µM
qual: >
IC50: 100

----------
- experimental-system: CYP2C19 (Homo sapiens, UniProt P33261)
- Sequence (P33261 whole entry): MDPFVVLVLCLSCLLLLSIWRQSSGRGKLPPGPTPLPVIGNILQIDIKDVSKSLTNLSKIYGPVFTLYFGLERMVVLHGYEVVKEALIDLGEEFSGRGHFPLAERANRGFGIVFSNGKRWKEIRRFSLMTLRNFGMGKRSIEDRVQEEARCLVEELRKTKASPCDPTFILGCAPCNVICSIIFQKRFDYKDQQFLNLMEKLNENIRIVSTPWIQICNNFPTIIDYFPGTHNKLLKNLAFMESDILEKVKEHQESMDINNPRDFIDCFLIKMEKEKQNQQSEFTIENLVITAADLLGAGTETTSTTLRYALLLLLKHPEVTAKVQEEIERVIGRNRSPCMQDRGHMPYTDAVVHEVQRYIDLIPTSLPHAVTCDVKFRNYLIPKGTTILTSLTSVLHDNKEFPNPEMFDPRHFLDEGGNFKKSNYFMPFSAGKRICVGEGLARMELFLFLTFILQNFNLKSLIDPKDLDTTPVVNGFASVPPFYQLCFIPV
- experiment-description: Inhibition of human recombinant CYP2C19 at 1 uM by fluorimetric assay
- Type: ADME

record-smiles: Cc1ccc(-c2ncccn2)c(C(=O)N2CC3(CC3)C[C@H]2CNc2cc(C(F)(F)F)ccn2)n1
experimental-system: CYP2C19 (Homo sapiens, UniProt P33261)
inhibition at 1 µM: < 39%
//
record-smiles: Cc1nc(C(=O)N2CC3(CC3)C[C@H]2CNc2ccc(C(F)(F)F)cn2)c(-c2ccccc2)s1
experimental-system: CYP2C19 (Homo sapiens, UniProt P33261)
inhibition at 1 µM: < 20%
//
record-smiles: Cc1ccc(-c2ncccn2)c(C(=O)N2CC3(CC3)C[C@H]2CNc2ccc(Cl)cn2)c1
experimental-system: CYP2C19 (Homo sapiens, UniProt P33261)
inhibition at 1 µM: < 53%
//
record-smiles: Cc1cc(C)nc(NC[C@@H]2CC3(CC3)CN2C(=O)c2nc(C)sc2-c2ccccc2)n1
experimental-system: CYP2C19 (Homo sapiens, UniProt P33261)
inhibition at 1 µM: < 16%
//
record-smiles: O=C(c1cc(Cl)ccc1-c1ncccn1)N1CC2(CC2)C[C@H]1CNc1cc(C(F)(F)F)ccn1
experimental-system: CYP2C19 (Homo sapiens, UniProt P33261)
inhibition at 1 µM: < 57%
//
record-smiles: Cc1cc(C(F)(F)F)cc(NC[C@@H]2CC3(CC3)CN2C(=O)c2nc(C)sc2-c2ccccc2)n1
experimental-system: CYP2C19 (Homo sapiens, UniProt P33261)
inhibition at 1 µM: < 69%
//
record-smiles: Cc1nc(C(=O)N2CC3(CC3)C[C@H]2CNc2cc(C(F)(F)F)ccn2)c(-c2ccccc2)s1
experimental-system: CYP2C19 (Homo sapiens, UniProt P33261)
inhibition at 1 µM: < 55%
//
record-smiles: Cc1ccc(-c2ncccn2)c(C(=O)N2CC3(CC3)C[C@H]2CNc2cc(C#N)ccn2)n1
experimental-system: CYP2C19 (Homo sapiens, UniProt P33261)
inhibition at 1 µM: < 17%
//
record-smiles: Cc1ccc(-c2ncccn2)c(C(=O)N2CC3(CC3)C[C@H]2CNc2cc(C(F)(F)F)ccn2)c1
experimental-system: CYP2C19 (Homo sapiens, UniProt P33261)
inhibition at 1 µM: < 72%
//
record-smiles: Cc1ccc(-n2nccn2)c(C(=O)N2CC3(CC3)C[C@H]2CNc2cccc(C)n2)c1
experimental-system: CYP2C19 (Homo sapiens, UniProt P33261)
inhibition at 1 µM: < 34%

----------
The entries below are paired with their reported clearance.
- experiment-description: Plasma clearance in rat at 1 mg/kg, iv
- Format: ADME, organism-based
- Set-up: dose 1 mg/kg, route intravenous

record-smiles: Cc1ccc(-c2ncccn2)c(C(=O)N2CC3(CC3)C[C@H]2CNc2ccc(Cl)cn2)c1
clearance / mL/min/kg: 11
--
record-smiles: Cc1ccc(-c2ccccc2)c(C(=O)N2CC3(CC3)C[C@H]2CNc2ccc(C(F)(F)F)cn2)n1
clearance / mL/min/kg: 61.3
--
record-smiles: Cc1ccc(-c2ncccn2)c(C(=O)N2CC3(CC3)C[C@H]2CNc2ccc(C(F)(F)F)cn2)n1
clearance / mL/min/kg: 47.5
--
record-smiles: Cc1nc(C(=O)N2CC3(CC3)C[C@H]2CNc2ccc(C(F)(F)F)cn2)c(-c2ccccc2)s1
clearance / mL/min/kg: 55.2
--
record-smiles: Cc1ccc(-n2nccn2)c(C(=O)N2CC3(CC3)C[C@H]2CNc2cccc(C)n2)c1
clearance / mL/min/kg: 33.1
--
record-smiles: Cc1cc(C)nc(NC[C@@H]2CC3(CC3)CN2C(=O)c2nc(C)sc2-c2ccccc2)n1
clearance / mL/min/kg: 41.4

----------
- experimental-system: CYP2C9 (Homo sapiens)
- Sequence (P11712 whole entry): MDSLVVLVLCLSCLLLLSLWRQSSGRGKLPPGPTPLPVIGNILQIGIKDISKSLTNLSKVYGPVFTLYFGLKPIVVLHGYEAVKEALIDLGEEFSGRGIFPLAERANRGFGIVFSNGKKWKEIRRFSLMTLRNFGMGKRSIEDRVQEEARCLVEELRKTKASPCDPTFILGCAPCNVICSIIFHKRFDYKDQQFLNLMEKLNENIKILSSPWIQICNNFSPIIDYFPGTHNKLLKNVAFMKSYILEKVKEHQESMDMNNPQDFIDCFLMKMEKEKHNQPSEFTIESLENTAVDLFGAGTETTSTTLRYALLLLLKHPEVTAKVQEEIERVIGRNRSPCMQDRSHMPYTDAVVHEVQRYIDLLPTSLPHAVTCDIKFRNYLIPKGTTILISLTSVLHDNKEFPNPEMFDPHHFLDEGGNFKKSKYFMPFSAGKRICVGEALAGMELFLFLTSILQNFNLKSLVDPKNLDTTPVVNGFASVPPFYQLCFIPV
- experiment-description: Inhibition of human recombinant CYP2C9 at 1 uM by fluorimetric assay
- Format: ADME
recorded-endpoint: inhibition at 1 µM

record-smiles: Cc1ccc(-c2ncccn2)c(C(=O)N2CC3(CC3)C[C@H]2CNc2cc(C(F)(F)F)ccn2)c1
experimental-system: CYP2C9 (Homo sapiens)
recorded-endpoint: inhibition at 1 µM
assay-value: < 72%
--
record-smiles: Cc1ccc(-c2ncccn2)c(C(=O)N2CC3(CC3)C[C@H]2CNc2cc(C#N)ccn2)n1
experimental-system: CYP2C9 (Homo sapiens)
recorded-endpoint: inhibition at 1 µM
assay-value: < 17%
--
record-smiles: Cc1nc(C(=O)N2CC3(CC3)C[C@H]2CNc2cc(C(F)(F)F)ccn2)c(-c2ccccc2)s1
experimental-system: CYP2C9 (Homo sapiens)
recorded-endpoint: inhibition at 1 µM
assay-value: < 55%
--
record-smiles: Cc1ccc(-n2nccn2)c(C(=O)N2CC3(CC3)C[C@H]2CNc2cccc(C)n2)c1
experimental-system: CYP2C9 (Homo sapiens)
recorded-endpoint: inhibition at 1 µM
assay-value: < 34%
--
record-smiles: Cc1cc(C(F)(F)F)cc(NC[C@@H]2CC3(CC3)CN2C(=O)c2nc(C)sc2-c2ccccc2)n1
experimental-system: CYP2C9 (Homo sapiens)
recorded-endpoint: inhibition at 1 µM
assay-value: < 69%
--
record-smiles: Cc1nc(C(=O)N2CC3(CC3)C[C@H]2CNc2ccc(C(F)(F)F)cn2)c(-c2ccccc2)s1
experimental-system: CYP2C9 (Homo sapiens)
recorded-endpoint: inhibition at 1 µM
assay-value: < 20%
--
record-smiles: O=C(c1cc(Cl)ccc1-c1ncccn1)N1CC2(CC2)C[C@H]1CNc1cc(C(F)(F)F)ccn1
experimental-system: CYP2C9 (Homo sapiens)
recorded-endpoint: inhibition at 1 µM
assay-value: < 57%
--
record-smiles: Cc1cc(C)nc(NC[C@@H]2CC3(CC3)CN2C(=O)c2nc(C)sc2-c2ccccc2)n1
experimental-system: CYP2C9 (Homo sapiens)
recorded-endpoint: inhibition at 1 µM
assay-value: < 16%
--
record-smiles: Cc1ccc(-c2ncccn2)c(C(=O)N2CC3(CC3)C[C@H]2CNc2cc(C(F)(F)F)ccn2)n1
experimental-system: CYP2C9 (Homo sapiens)
recorded-endpoint: inhibition at 1 µM
assay-value: < 39%
--
record-smiles: Cc1ccc(-c2ncccn2)c(C(=O)N2CC3(CC3)C[C@H]2CNc2ccc(Cl)cn2)c1
experimental-system: CYP2C9 (Homo sapiens)
recorded-endpoint: inhibition at 1 µM
assay-value: < 53%
